experiment: NCI Yeast Anticancer Drug Screen. Data for the mlh1 rad18 strain (AID 175); conditions: S. cerevisiae mlh1 rad18 strain growth inhibition; at 50.0 µM; active compounds read high
This is part of a sample that, as a whole, favours compounds with a hit. Of some 79,000 tested, about 15% had one in any assay. The source made the active and inactive calls. Rule as the data show it: active = growth inhibition above about 70%; inactive = the rest.
Quick reference for growth inhibition among some compounds

Q. Could you share which growth inhibition value was measured for "CCOC(=O)NP(=O)(Nc1ccc(C)cc1)Nc1ccc(C)cc1" ?
A. -1.45% (inactive)

----------
Experiment: NCI Yeast Anticancer Drug Screen. Data for the rad50 strain (AID 155);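 also: 0% = growth of vehicle-only cultures of the same strain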
Details: S. cerevisiae rad50 strain growth inhibition; at 50.0 µM
Experimental: Growth inhibition of yeast strains with defined genetic alterations is measured as a screen for potential anti-cancer activity. Selected strains with alterations in DNA damage repair or cell cycle control were exposed to compounds and growth inhibition was measured relative to vehicle treated controls. The strain used in this assay is rad50
This is part of a sample that, as a whole, favours compounds with a hit. Of some 79,000 tested, about 15% had one in any assay. Calls of active or inactive are those of the source. Cut-off read from the data, not from the text of the source: active = growth inhibition above about 70%; inactive = the rest.
Please reply with one of these outcomes: Y for active, N for inactive

| Compound | Discrete label |
| --- | --- |
| N=P(c1ccccc1)(c1ccccc1)c1ccccc1.[Cr+6].[N-]=C=S.[N-]=C=S.[N-]=C=S.[N-]=C=S.[NH2-].[NH2-] | N |
| CC([OH2+])CNCCN.CC([OH2+])CNCCN.O=[N+]([O-])[O-].[Cu+2] (stereo not given) | N |
| CCOC(=O)NP(=O)(Nc1ccc(C)cc1)Nc1ccc(C)cc1 | N |
| Cc1c[nH]c2c1C13CC1CN(C(=O)c1cc4cc(NC(=O)c5cc6ccccc6o5)ccc4[nH]1)C3=CC2=O (stereo not given) | Y |
| C[C@]12CC[C@H]3[C@@H](CCC4=CC(=O)CC[C@@]43C)[C@]1(O)CC[C@]2(O)C(=O)CO | N |
| S=C(Nc1ccccc1)N1CC1 | N |

Q. For this compound, state the assay outcome: "COC(=O)CP(=O)(OC)OC"
A. N

Q. For this compound, state the assay outcome: "Cc1ccc(Oc2ccc3c(c2)CN(C)CC3)cc1"
A. Y

Q. For this compound, state the assay outcome: "Nc1cccc2c1Cc1cc([N+](=O)[O-])ccc1-2"
A. N

Q. For this compound, state the assay outcome: "CC(C)OP(=O)(NC(=S)c1ccccc1)OC(C)C"
A. N

----------
experiment: NCI Yeast Anticancer Drug Screen. Data for the cln2 rad14 strain (AID 165);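 also: 0% = growth equal to vehicle treated cultures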; details: S. cerevisiae cln2 rad14 strain, at 50.0 µM, active compounds read high
The panel holds about 79,000 compounds, 15% with a hit somewhere; the sample as a whole holds those more often.
Measured property: growth inhibition (%)
Report as a plain number; the unit % is understood.

// known answers, use as guide
| Compound | Value reported |
| --- | --- |
| O=[As](O)(O)c1ccc(N=Nc2ccccc2)cc1 | -19.9 |
| Cc1cc(Cl)ccc1O | 0.5 |

Let us move to another entry and its growth inhibition.
Q. Could you share which growth inhibition value was measured for O=C1OC(Br)c2ccccc21 (stereo not given) ?
A. 7

----------
Quick reference for growth inhibition among some molecules
Assay: NCI Yeast Anticancer Drug Screen. Data for the cln2 rad14 strain (AID 165);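 also: 0% = growth equal to vehicle treated cultures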
Settings: S. cerevisiae cln2 rad14 strain, at 50.0 µM, active compounds read high
Procedure: Growth inhibition of yeast strains with defined genetic alterations is measured as a screen for potential anti-cancer activity. Selected strains with alterations in DNA damage repair or cell cycle control were exposed to compounds and growth inhibition was measured relative to vehicle treated controls. The strain used in this assay is cln2 rad14
This is part of a sample that, as a whole, favours compounds with a hit. Of some 79,000 tested, about 15% had one in any assay.
Report as a plain number; the unit % is understood.

// known answers, use as guide
| Molecule | Readout unit | Value reported |
| --- | --- | --- |
| S=C(SP(SC(=S)N1CCCCC1)SC(=S)N1CCCCC1)N1CCCCC1 | % | -10.2 |
| CCOP(=O)(OCC)N1C(C)C1C (configuration not stated) | % | -8.3 |

Q. Could you share which growth inhibition value was measured for "CN(C)C1OCCO1" ?
A. 1.4

Q. Could you share which growth inhibition value was measured for CC(C)CC(NC(=O)CF)C(=O)O (configuration not stated) ?
A. 1.4

Q. Could you share which growth inhibition value was measured for "O=C1NC(=S)NC(=O)C1=Cc1ccco1" ?
A. 27.6

Q. Could you share which growth inhibition value was measured for COc1ccc2c(c1OC)C13CCN(C)C(C2)C12C=CC(=O)C3c1c(OC)ccc(OC)c12 (configuration not stated) ?
A. 18.8

Q. Could you share which growth inhibition value was measured for "COC(=O)c1ccccc1N" ?
A. -29.5

----------
test: NCI Yeast Anticancer Drug Screen. Data for the cln2 rad14 strain (AID 165);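 also: 0% = growth equal to vehicle treated cultures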; settings: S. cerevisiae cln2 rad14 strain, at 50.0 µM
This is part of a sample that, as a whole, favours compounds with a hit. Of some 79,000 tested, about 15% had one in any assay. Active and inactive are the calls of the source. Rule as the data show it: active = growth inhibition above about 70%; inactive = the rest.
Please reply with one of these outcomes: active, inactive

Worked examples, 2 molecules total:
| Molecule | Discrete label |
| --- | --- |
| COc1cc(C2c3cc4c(cc3OC(C)(O)C2C(C)=O)OCO4)cc(OC)c1OC (stereo not drawn) | inactive |
| N.N.N.N.O=C([O-])C(Cl)Cl.O=C([O-])C(Cl)Cl.[Co+3].[O-][Cl+3]([O-])([O-])[O-] | inactive |

Q. For this molecule, state the assay outcome: "CCOC(=O)C(O)(c1ccccc1)c1ccccc1"
A. inactive

Q. For this molecule, state the assay outcome: C=CCNC(=O)C(Br)C(C)C (stereo not drawn)
A. inactive

----------
assay: NCI Yeast Anticancer Drug Screen. Data for the bub3 strain (AID 167); conditions: S. cerevisiae bub3 mutant strain, at 50.0 µM, active compounds read high
This is part of a sample that, as a whole, favours compounds with a hit. Of some 79,000 tested, about 15% had one in any assay.
Measured property: growth inhibition (%)
Report as a plain number; the unit % is understood.

| Molecule | growth inhibition (%) |
| --- | --- |
| O=C(O)C(Cc1cnc[nH]1)N1C(=O)c2ccccc2C1=O (stereo unspecified) | -10 |

Q. Could you share which growth inhibition value was measured for "C=[CH][Sn]([Cl])([Cl])[CH]=C.CN(C)P(=O)(N(C)C)N(C)C" ?
A. 53.3

Q. Could you share which growth inhibition value was measured for "O=C(Nc1cccc(Cl)c1)Oc1ccc(S(=O)(=O)F)cc1Cl" ?
A. 90.9

Q. Could you share which growth inhibition value was measured for "O=C(c1ccccc1)P(C(=O)c1ccccc1)C(=O)c1ccccc1" ?
A. -0.05

Q. Could you share which growth inhibition value was measured for CCOC(=O)C1C(c2ccco2)C2(C#N)C(=N)OC1(C)C2(C#N)C#N (stereo unspecified) ?
A. -36.8

Q. Could you share which growth inhibition value was measured for "COC(=S)NP(=O)(NC(=S)OC)NC(=S)OC" ?
A. -1.95

Q. Could you share which growth inhibition value was measured for "c1cc[c]([Hg][S]c2nc3ccccc3s2)cc1" ?
A. -5.15

Q. Could you share which growth inhibition value was measured for CCC[N+]12C(O)C(CC)C3CC1C1N(C)c4ccc(Br)cc4C14CC2C3C4O (stereo unspecified) ?
A. 6.85

Q. Could you share which growth inhibition value was measured for CC12CC/C(=C3/C=CC(=O)S3)C=C1CCC1C2CCC2(C)C(O)CCC12 (stereo unspecified) ?
A. -19.6

Q. Could you share which growth inhibition value was measured for "O=c1c(O)c(-c2ccccc2)oc2ccccc12" ?
A. 42.5

Q. Could you share which growth inhibition value was measured for "CN1C(c2cccnc2)=NCC12CCCC2" ?
A. -10.2

Q. Could you share which growth inhibition value was measured for "CCOP(O)OCC" ?
A. -5.2

Q. Could you share which growth inhibition value was measured for "CC(=O)O[C@H]1CC[C@]2(C)[C@H]3CC[C@]4(C)[C@@H](OC(C)=O)CC[C@H]4[C@@H]3[C@H](C=O)[C@]2(O)C1" ?
A. -0.75

Q. Could you share which growth inhibition value was measured for CC(Cl)CN(CC(C)Cl)C(=O)Oc1ccc(CC(N)C(=O)O)cc1 (stereo unspecified) ?
A. -0.1

Q. Could you share which growth inhibition value was measured for CC1[N-]C(/C=N/O)NC(C)N1.CC1[N-]C(/C=N/O)NC(C)N1.[Br][Ni+2][Br] (stereo unspecified) ?
A. 0.65

Q. Could you share which growth inhibition value was measured for "Nc1ccc([As](=O)(O)O)cc1" ?
A. 7.9

----------
experiment: NCI Yeast Anticancer Drug Screen. Data for the rad50 strain (AID 155);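 also: 0% = growth of vehicle-only cultures of the same strain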; conditions: S. cerevisiae rad50 strain growth inhibition; at 50.0 µM
This is part of a sample that, as a whole, favours compounds with a hit. Of some 79,000 tested, about 15% had one in any assay. The source made the active and inactive calls. No stated cut-off is given here; in the data, active means growth inhibition above about 70%; inactive means the rest.
Please reply with one of these outcomes: active, inactive

Worked examples, 3 molecules total:
| Molecule | Discrete label |
| --- | --- |
| O=c1ccc(=O)[nH][nH]1.[Mn] | inactive |
| Cn1cnc([N+](=O)[O-])c1C(=O)O (tested in a mixture with another compound) | inactive |
| Cc1ccc([Se][Se]c2ccc(C)cc2)cc1 | inactive |

Q. For this molecule, state the assay outcome: O=C(O)C(CSC(c1ccccc1)(c1ccccc1)c1ccccc1)N1C(=O)c2ccccc2C1=O (centres undefined)
A. active

Origin of measurements: PubChem BioAssay (NCI)
